# protocol.notes: passive permeability, PAMPA, ADME assay (AID 1508612)
# condition.set: pH 7.4, 30.0 min, 50.0 µM
Listed molecules paired with reported Papp

# example entries with known answers
item.smiles: O=C(Nc1nc(-c2ccccc2)cs1)c1ccncc1NS(=O)(=O)c1ccc(F)cc1Cl
Papp: > 1000 ×10⁻⁶ cm/s
--
item.smiles: CC(=O)N[C@H]1CN(C2CCN(c3ccc(F)cc3C)CC2)C[C@@H]1C1CC1
Papp: > 1000 ×10⁻⁶ cm/s

Next:
Return reported Papp; argument: CCOc1ccc(CCNC(=O)c2cc3ncccc3n2Cc2cccc(C)c2)cc1OCC
> 1000 ×10⁻⁶ cm/s

====

This section presents compounds with their documented Papp values.
# protocol.notes: passive permeability, PAMPA, ADME assay (AID 1508612)
# condition.set: pH 7.4, 30.0 min, 50.0 µM

Consider the following illustrative entries.
item.smiles: CCCc1ccc(C(=O)NC(=O)c2ccccc2O)cc1
Papp: < 1 ×10⁻⁶ cm/s

item.smiles: Cc1cccc(-n2cnc3cc(C(=O)N4CCC(Br)CC4)ccc32)c1
Papp: > 1000 ×10⁻⁶ cm/s

Recorded Papp for COc1cc(-c2cc3c(nc2-c2ccccc2)nc(C(=O)NC2CCN(C)CC2)n3C)ccn1 , please?
> 1000 ×10⁻⁶ cm/s

====

# protocol.notes: passive permeability, PAMPA, ADME assay (AID 1508612)
# condition.set: pH 7.4, 30.0 min, 50.0 µM
readout.type: Papp

Check out these entries, answers already filled in.
molecule: COc1ccc(OC)c(N2C(=O)C(Cl)=C(N3CCCCC3)C2=O)c1
measured.result: > 1000 ×10⁻⁶ cm/s
--
molecule: O=C(Nc1ccc2c(N3CCCCC3)ncnc2c1)c1cc(F)cc(F)c1
measured.result: > 1000 ×10⁻⁶ cm/s
--
molecule: COc1ccc(-c2ccc3nc(-c4ccccc4C)oc3c2)c(OC)c1OC
measured.result: < 1 ×10⁻⁶ cm/s
--
molecule: O=C1CCCC2=C1C(c1ccccc1Cl)N=C(Nc1nc3ccccc3o1)N2 (stereo not given)
measured.result: > 1000 ×10⁻⁶ cm/s

Lab note: next molecule to report on.
// returns reported Papp for input CC(C)(C)c1ccc(-c2ccc(=O)n(CC(=O)NCCc3ccccc3)n2)cc1
> 1000 ×10⁻⁶ cm/s

====

# protocol.notes: passive permeability, PAMPA, ADME assay (AID 1508612)
# condition.set: pH 7.4, 30.0 min, 50.0 µM
Quick reference: Papp of the listed items.

Would you please look over these solved cases?
compound: CCOc1ccc(-c2cn3c(n2)sc2cc(C(=O)NCCCN(CC)CC)ccc23)cc1
Papp: > 10000 nm/s

compound: CCCOC(=O)c1ccc(Oc2c(-c3ccc(O)cc3O)n[nH]c2C)cc1
Papp: > 10000 nm/s

compound: Cc1ccc(OCCn2c(CCNC(=O)N3CCCCC3)nc3ccccc32)cc1
Papp: > 10000 nm/s

compound: COc1ccccc1CNS(=O)(=O)c1ccc(-c2cnc(C3CC3)o2)cc1
Papp: > 10000 nm/s

compound: CC[C@@]1(O)C(=O)OCc2c1cc1n(c2=O)Cc2c-1nc1ccccc1c2CCNC(C)C
Papp: < 10 nm/s

Below: the item to evaluate.
Sample CC(C)NC(=O)C1CCN(C(=O)c2cc3sccc3n2Cc2ccc(Cl)cc2)CC1 — what was its Papp?
> 10000 nm/s
